Value source: PubChem BioAssay (NCATS)

# testProtocol: Cellular Toxicity (caspase-3) HepG2 (AID 654);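 as to caspase-3 activation: cells exposed to compound for 16 hours before reading; 0% = DMSO alone and 100% = caspase signal from 100 µM tamoxifen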
# details: HepG2 caspase-3 activation, luminescence; series mostly up to 92.2 µM
Calls of active or inactive are those of the source. Calls follow the shape of the dose curve; as a rule, active = well fitted activation curve with a large enough effect; inconclusive = small, poorly fitted or top-dose-only effect; inactive = flat fitted curve, though single readings scatter.
Outcome codes: active, inactive

1) C[C@@H]1CC2(OC(O)[C@]3(C)O[C@H]23)O[C@H]2C[C@@]3(C)[C@@H]4CC[C@H]5C(C)(C)C(O[C@@H]6OC[C@@H](O)[C@H](O)[C@H]6O)CC[C@@]56C[C@@]46CC[C@]3(C)[C@@H]12 (stereo partly specified) | active
2) CCCCCCCCOc1ccc(C(=O)O)cc1 | inactive
3) C[Si](C)(C)Cl | inactive
4) Nc1ccc2c(c1)C(=O)c1ccccc1C2=O | inactive
5) CC(=O)OCc1ccc2c(c1)OCO2 | inactive
6) Cc1cccnc1 | inactive

----------
# systemUnderTest: Cytochrome P450 1A2 (Homo sapiens) (UniProt P05177)
# Sequence (P05177 whole entry, looked up): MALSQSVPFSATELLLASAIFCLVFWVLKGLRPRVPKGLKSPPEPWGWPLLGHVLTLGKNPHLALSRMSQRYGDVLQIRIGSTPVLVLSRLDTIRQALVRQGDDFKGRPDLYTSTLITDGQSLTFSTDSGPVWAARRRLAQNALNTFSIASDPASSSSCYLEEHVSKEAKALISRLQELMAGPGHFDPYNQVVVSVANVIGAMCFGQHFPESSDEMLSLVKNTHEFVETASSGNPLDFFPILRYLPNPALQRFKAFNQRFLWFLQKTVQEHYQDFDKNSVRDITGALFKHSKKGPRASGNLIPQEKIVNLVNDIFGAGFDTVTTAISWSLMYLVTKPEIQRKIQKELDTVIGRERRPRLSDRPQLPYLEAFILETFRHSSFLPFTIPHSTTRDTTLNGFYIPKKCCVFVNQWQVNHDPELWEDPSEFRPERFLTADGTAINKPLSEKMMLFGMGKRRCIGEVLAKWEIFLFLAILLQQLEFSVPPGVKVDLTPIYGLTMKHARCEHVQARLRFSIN
# testProtocol: p450-cyp1a2 (AID 410); also: potency is read from the fitted curve at half-maximal effect
# details: recombinant CYP1A2, luciferin-ME demethylation, luminescence; series mostly up to 11.4 µM
# Experimental: The P450 gene superfamily is involved in metabolism and the clearance of xenobiotics. This assay used human CYP1A2 to measure the demethylation of luciferin 6' methyl ether (Luciferin-ME; Promega-Glo) to luciferin. The luciferin is then measured by luminescence after the addition of a luciferase detection regeant. Luciferin-ME concentration in the assay was equal to its Km for CYP1A2. NCGC Assay Protocol Summary: […]
Inconclusive results are not listed. Activity calls are given as the source filed them. Calls follow the shape of the full dose curve.
assayMetric: Potency

1) Cc1ccc(S(=O)(=O)O[C@@H]2[C@H]([C@@H]3COC(C)(C)O3)O[C@H]3OC(C)(C)O[C@@H]32)cc1 | inactive
2) O=P(O)(CCP(=O)(O)c1ccccc1)c1ccccc1 | inactive
3) O=C(CC1(O)CCCCC1)OC1CCCC1 | inactive
4) CC(C)=C[C@H]1[C@@H](COC(=O)c2ccccc2Cl)C1(C)C | 3980 nM (active)
5) O=C(O)C(=Cc1ccc(-c2ccccc2)cc1)C(=O)O | 794 nM (active)
6) CC(=O)O[C@H]1CC[C@@]2(C)C(=CC[C@@H]3[C@H]4CC[C@@H]([C@H](C)C(=O)O)[C@]4(C)CC[C@H]32)C1 | 3160 nM (active)
7) O=C1c2ccccc2-c2ccc(NC(=O)[C@H]3CCCC[C@@H]3C(=O)O)cc21 | 1000 nM (active)
8) CC(C)[C@H](Sc1nc(N)nc2nc[nH]c12)C(=O)O | 316 nM (active)
9) CSc1nc(N)c2ncn([C@@H]3O[C@@H](COP(=O)(O)OP(=O)(O)OP(=O)(O)O)[C@@H](O)[C@H]3O)c2n1 | inactive
10) O=S(=O)(c1ccccc1)N1CN2CN(C1)CN(S(=O)(=O)c1ccccc1)C2 | inactive

----------
In this section we review reported activity, negative = inhibition values for a set of molecules.
# testProtocol: Stat Signaling Pathway (AID 446);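 also: ME-180 cervical cancer cells given 40 pM IL-6 alongside compound; SIE-controlled beta-lactamase reporter measured as 460/530 nm FRET emission ratio; % is scaled to controls: 0 for no effect and ±100 for the full control effect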
# details: ME-180 (cervical carcinoma) SIE beta-lactamase reporter, IL-6 stimulated, 5 h; at 7.69 µM (top of the series) unless noted
Records with an inconclusive call do not appear. Calls of active or inactive are those of the source. Calls come from the whole dose curve; as a rule, active = well fitted curve in either direction with a large enough effect (not every such curve was filed as active); inconclusive = small, poorly fitted or top-dose-only effect, or another doubt; inactive = flat fitted curve, though single readings scatter.
assayMetric: activity, negative = inhibition

1) NC(=O)Nc1n[nH]c(-c2ccccc2)n1 | 2.91% (inactive)
2) CC1(C)[C@@H]2CC[C@@](C)(C2)[C@H]1OC(=O)c1ccccc1C(=O)O | -3.05% (inactive)
3) C=C[C@]1(C)C[C@H](OC(=O)CO)[C@]2(C)C3C(=O)CC[C@]3(CC[C@H]2C)[C@H](C)[C@H]1O (stereo partly specified) | -4.08% (inactive)
4) O=C1c2ccccc2C(=O)N1c1ccc(Cc2ccc(N3C(=O)c4ccccc4C3=O)cc2)cc1 | -2.37% (inactive)
5) Cc1ccc(S(=O)(=O)OC2CCN(C)CC2)cc1 | 3.66% (inactive)
6) N#C[C@H](c1ccccc1)N1CCCN([C@@H](C#N)c2ccccc2)C1c1ccccc1O (stereo partly specified) | 6.35% (inactive)
7) C[C@@]12CCC(=O)C=C1CC[C@H]1[C@@H]2[C@@H](O)C[C@]2(C)[C@@H]1CC[C@@]2(O)C(=O)CO | 4.86% (inactive)
8) CC(C)(C)C1CCC2(CC1)CCN(CCCN1CCOCC1)CC2 | -3.69% (inactive)
9) Nc1nc(SCC(=O)O)[nH]c(=O)c1N | 4.74% (inactive)
10) c1ccc(CN2CCC3(CC2)SSC2(CCN(Cc4ccccc4)CC2)SS3)cc1 | -1.41% (inactive)
11) Nc1nc(SCc2ccccn2)c2ncn(C3CCCC3)c2n1 | 4.58% (inactive)
12) CSc1nc(N)c2ncn([C@@H]3O[C@@H](COP(=O)(O)OP(=O)(O)OP(=O)(O)O)[C@@H](O)[C@H]3O)c2n1 | -1.18% [at 38 µM] (inactive)
13) O=C(O)CCSCc1ccc(I)cc1 | 4.16% (inactive)
14) CN(C)CN1CSC(=S)N(CN(C)C)C1 | 0.0184% (inactive)
15) CN1CCc2c(cc(O)c(O)c2Cl)[C@H](c2cccc(Cl)c2)C1 | -20% [at 38 µM] (inactive)
16) COc1ccccc1-c1nc(NCc2ccccc2)c2ccccc2n1 | 0.0453% (inactive)
17) NS(=O)(=O)c1ccc(N=Nc2ccc(O)c(C(=O)O)c2)cc1 | -2.97% (inactive)
18) O=C1/C(=C/c2cccnc2)SC(=S)N1Cc1ccco1 | -9.72% (inactive)
19) O=S(=O)(c1cccc(C(F)(F)F)c1)N1c2ccccc2-n2cccc2[C@H]1c1cccnc1 | -6.23% (inactive)
20) CC1=C(\C=C/C(C)=C/C=C\C(C)=C\C(=O)Nc2ccc(O)cc2)C(C)(C)CCC1 | -11.2% [at 38 µM] (inactive)
21) O=C(O)c1ccc(C(=O)Nc2cccc3ccccc23)c(C(=O)O)c1 | 0.708% (inactive)
22) Cc1cc2nc3[nH]c4c(Cl)cc(Cl)cc4c3nc2cc1C | -5.45% (inactive)
23) Nc1nc2c(c(=O)[nH]1)N[C@H](CCNc1ccc(C(=O)O)cc1)CN2 | -3.77% (inactive)
24) CC(C)N(CC(=O)O)CC(=O)O | 10.4% (inactive)
25) O=C(O)c1ccc(S(=O)(=O)N=Nc2c(O)[nH]c3ccccc23)cc1 | 21.1% (inactive)
26) O=S(=O)(c1ccc(Br)cc1)N1CCN(S(=O)(=O)c2ccc(Br)cc2)CC1 | 5.43% (inactive)
27) O=S(=O)(O)c1ccc(O)c2ncccc12.O=S(=O)(O)c1ccc(O)c2ncccc12.[Zn] | 7.8% (inactive)
28) Cc1cc(N2CCN(C)CC2)n2nc(-c3ccc(Cl)cc3)nc2n1 | 4.28% (inactive)
29) O=C(O)C[C@@H](C(=O)O)C1c2ccccc2-c2ccccc21 | -5.83% (inactive)
30) CC(C)(CN)CN | 0.176% (inactive)
31) CN1CCCN(C)C1c1cc([N+](=O)[O-])ccc1O | -0.988% (inactive)
32) NC(=O)c1ncn([C@@H]2O[C@@H](CO)[C@@H](O)[C@H]2O)c1O | 3.38% [at 38 µM] (inactive)
33) CC(C)CO[C@H](c1ccc2c(c1)OCO2)[C@H](C)Br | 7% (inactive)
34) NCc1nnn(Cc2ccccc2)c1N | -5.08% (inactive)
35) CC(=O)C=NCC(=O)O | -0.18% (inactive)
36) O=C1CSC(=S)N1/N=C\c1ccc(Cl)c([N+](=O)[O-])c1 | 1.79% (inactive)
37) O=C(O)CCSCc1ccccc1 | -0.355% (inactive)
38) Cn1c(=O)c2[nH]c(CCS)nc2n(C)c1=O | 3.06% (inactive)
39) CC[C@@]1([N+](=O)[O-])C[C@H]2C=C[C@@H]1C2 | 3.53% (inactive)
40) Nc1nccc(Nc2ccc(S(N)(=O)=O)cc2)n1 | -5% (inactive)
41) NCCSc1nc(-c2ccccc2)c(-c2ccccc2)o1 | -3.16% (inactive)
42) c1ccc2sc(SCSc3nc4ccccc4s3)nc2c1 | 2.46% (inactive)
43) NNC(=O)CCc1ccc2ccc3ccccc3c2c1 | -11% (inactive)
44) CC(C)(CO)N1CCN(C(=S)Nc2ccccc2)CC1 | -2.59% (inactive)
45) NC(N)=N[C@H](CC(=O)O)c1ccccc1 | 3.35% (inactive)
46) CN1[C@@H]2CC(OC(=O)[C@@H](CO)c3ccccc3)C[C@@H]1[C@H]1O[C@H]12 (stereo partly specified) | 6.14% (inactive)
